assay: Pharmacokinetic study of bPGD3-4 after i.p. single dose (streptavidin-coated ELISA of plasma); conditions: read-out: Cmax, chronic simulation; simulated, 1,000 nmol kg^−1 i.p. at 24-hourly intervals for 7 days
No end group written: not given here.

biopolymerSequence: RHAYRSMAEWGFLYS [PGD3-4]
Cmax [µM]: 670

----------
Measured pIC50, listed per entry for reference.
target: mAb R24; assay: Competitive inhibition ELISA: binding of mAb R24 to GD3-coated plate; conditions: as restated in Example 12; read-out: IC50 values for the active peptides
pIC50: −log10 of the molar value.

biopolymerSequence: ACTPYAMLPGCK [PGD3-5, GD3-like peptide]
pIC50: 7.00
//
biopolymerSequence: GLAPPDYAERFFLIS [PGD3-3, GD3-like peptide]
pIC50: 6.52
//
biopolymerSequence: SVAVPPPADDPSWRY [PGD3-6, GD3-like peptide]
pIC50: 6.60

----------
molecular target: mAb R24; assay: Competitive inhibition ELISA: binding of mAb R24 to GD3-coated plate; settings: read-out: IC50, competitive inhibition of GD3 reactivity to mAb R24; ELISA, 0.1 μg GD3 per well; as printed in Example 11

biopolymerSequence: ACTPYAMLPGCK [PGD3-5, GD3-like peptide]
IC50 [nM]: 100
